# System: Pasteurella multocida 60A
# method-description: MIC, broth-dilution microtiter test, Pasteurella multocida 60A
# Assay type: cell-based
# condition-details: Pasteurella multocida 60A; avian isolate; broth-dilution microtiter; read-out: MIC
property-label: MIC

Some molecules with recorded MIC:
molecule	study-system	experimental-result
CCC1OC(=O)CC(O)C(C)C(OC2OC(C)C(O)C(N(C)C)C2O)C(CCOC(C)=O)CC(C)C(=O)C=CC(C)=CC1COC1OC(C)C(O)C(OC)C1OC (stereo not shown)	Pasteurella multocida 60A	25 µg/mL
CCC1OC(=O)CC(O)C(C)C(OC2OC(C)C(OC3CC(C)(O)C(O)C(C)O3)C(N(C)C)C2O)C(CCF)CC(C)C(=O)C=CC(C)=CC1COC1OC(C)C(O)C(OC)C1OC (stereo not shown)	Pasteurella multocida 60A	> 50 µg/mL
CCC1OC(=O)CC(O)C(C)C(OC2OC(C)C(OC3CC(C)(O)C(O)C(C)O3)C(N(C)C)C2O)C(CCOc2ccc(C=O)cc2)CC(C)C(=O)C=CC(C)=CC1COC1OC(C)C(O)C(OC)C1OC (stereo not shown)	Pasteurella multocida 60A	> 50 µg/mL
CCC1OC(=O)CC(O)C(C)C(OC2OC(C)C(OC3CC(C)(O)C(O)C(C)O3)C(N(C)C)C2O)C(CCOc2ccc(C(=O)c3ccccc3)cc2)CC(C)C(=O)C=CC(C)=CC1COC1OC(C)C(O)C(OC)C1OC (stereo not shown)	Pasteurella multocida 60A	> 50 µg/mL
CCC1OC(=O)CC(O)C(C)C(OC2OC(C)C(O)C(N(C)C)C2O)C(CCF)CC(C)C(=O)C=CC(C)=CC1COC1OC(C)C(O)C(OC)C1OC (stereo not shown)	Pasteurella multocida 60A	25 µg/mL
CCC1OC(=O)CC(O)C(C)C(OC2OC(C)C(OC3CC(C)(O)C(O)C(C)O3)C(N(C)C)C2O)C(CCOC(C(F)(F)F)C(F)(F)F)CC(C)C(=O)C=CC(C)=CC1COC1OC(C)C(O)C(OC)C1OC (stereo not shown)	Pasteurella multocida 60A	> 50 µg/mL

Now turn to the next molecule.
**Q:** Give its MIC value. Item: CCC1OC(=O)CC(O)C(C)C(OC2OC(C)C(OC3CC(C)(O)C(O)C(C)O3)C(N(C)C)C2O)C(CCSc2nnnn2C)CC(C)C(=O)C=CC(C)=CC1COC1OC(C)C(O)C(OC)C1OC (stereo not shown)
**A:** > 50 µg/mL

---

Hi there, I'd appreciate the recorded MIC for every entry that follows.
# Test system: Streptococcus Group 9960
# method-description: MIC, standard agar-dilution assay, Streptococcus Group 9960
# Assay type: cell-based
# condition-details: GROUP9960; Streptococcus Group 9960; agar dilution; read-out: MIC

compound	MIC
CCC1OC(=O)CC(O)C(C)C(OC2OC(C)C(OC3CC(C)(O)C(O)C(C)O3)C(N(C)C)C2O)C(CCOC(C(F)(F)F)C(F)(F)F)CC(C)C(=O)C=CC(C)=CC1COC1OC(C)C(O)C(OC)C1OC (stereo not drawn)	> 128 µg/mL

Give MIC for all compounds that follow.
1. CCC1OC(=O)CC(O)C(C)C(OC2OC(C)C(OC3CC(C)(O)C(O)C(C)O3)C(N(C)C)C2O)C(CCF)CC(C)C(=O)C=CC(C)=CC1COC1OC(C)C(O)C(OC)C1OC (stereo not drawn)
2. CCC1OC(=O)CC(O)C(C)C(OC2OC(C)C(OC3CC(C)(O)C(O)C(C)O3)C(N(C)C)C2O)C(CCOc2ccc(C=O)cc2)CC(C)C(=O)C=CC(C)=CC1COC1OC(C)C(O)C(OC)C1OC (stereo not drawn)

**A:**
["> 128 µg/mL", "> 128 µg/mL"]
